Recorded values, source patent EP4585616A1.

Listing: pEC50 of selected binders
- Measured target: T1, ROR1 extracellular segment with Kringle domain removed on CHO cells (human, UniProt Q01973 30-472, limits assumed)
- T1 construct: Transfected into CHO cells; also called CHO-ROR1 (with Kringle domain removed)
- T1 sequence (Q01973 other isoform, or with tags, fused parts or gaps limits assumed): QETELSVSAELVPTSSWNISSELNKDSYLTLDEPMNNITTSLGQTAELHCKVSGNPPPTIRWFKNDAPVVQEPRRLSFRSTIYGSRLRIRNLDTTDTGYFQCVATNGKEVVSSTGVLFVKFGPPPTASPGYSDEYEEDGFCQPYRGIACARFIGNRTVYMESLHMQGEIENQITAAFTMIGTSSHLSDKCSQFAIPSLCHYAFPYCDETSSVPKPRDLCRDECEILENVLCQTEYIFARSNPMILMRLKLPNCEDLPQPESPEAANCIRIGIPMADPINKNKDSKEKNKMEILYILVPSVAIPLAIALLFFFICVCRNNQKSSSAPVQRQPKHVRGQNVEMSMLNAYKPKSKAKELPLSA
- Assay: FACS, CHO-ROR1 (with Kringle domain removed) cells
pEC50: −log10 of the molar value.

Binder: mAb007c (antibody, V domains shown, Human-mouse chimeric) VH: EVQLQQSGPELVKPGASVKMSCKASGYTFTDYNMHWVKQSHGKSLEWIGYINPNNGGTSYNQKFKGKATLTVNKSSSTAYMELRSLTSDDSAVYYCARRGYGSGYAMDYWGQGTSVTVSS VL: DVLMTQTPLSLPVSLGDQASISCRSSQSIVHTNGNTYLEWYLQNPGQSPKLLIYKVFNRFSGVPDRFSGSGSGTDFTLKISRVEAEDLGVYYCFQGSLFPYTFGGGTKLEIK
pEC50: 8.99
//
Binder: mAb005c (antibody, V domains shown, Human-mouse chimeric) VH: EVQLVESGGGLVKPGGSLKLSCAASGFTFNSYAMSWVRQTPEKRLEWVATISDGGSYTYYPDNEKGRFTISRDNAKNNLYLQMSHLKSEDTAIYYCVRGGYYYNLYAMDYWGQGTSVTVSS VL: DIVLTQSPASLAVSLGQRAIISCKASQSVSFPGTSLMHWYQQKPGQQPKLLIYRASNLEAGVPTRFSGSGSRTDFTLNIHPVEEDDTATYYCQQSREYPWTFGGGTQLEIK
pEC50: 9.04
//
Binder: mAb003c (antibody, V domains shown, Human-mouse chimeric) VH: EVQLVESGGGLVKPGGSLKLSCAASGFTFSSYAMSWVRQTPEKRLEWVATISDGGSYTYYPDSVKGRFTISRDNAKNNLYLQMSHLKSEDTDMYYCVRGGYYYNLYAMDYWGQGTSVTVSS VL: DIVLTQSPASLAVSLGQRAIISCKASQSVSFAGTSLMHWYQQKPGQQPKLLIYRASNLEAGVPTRFSGSGSRADFTLNIHPVEEDDAATYYCQQSGEYPWTFGGGTKLEIK
pEC50: 8.76
//
Binder: mAb004c (antibody, V domains shown, Human-mouse chimeric) VH: EVQLVESGGGLVQPKGSLKLSCAASGFTFNTYAMHWVRQAPGKGLEWVARIRSKSSNFATYYADSVRDRFTISRDDSQSMLYLQMNNLKTEDTAMYYCVRGYGPSYFSLDYWGQGTSVTVSS VL: DVVMTQTPLSLPVSLGDQASISCRSSQSLVHSNGNTYLHWYLQKPGQSPKLLIYKVSNRFSGVPDRFSGSGSGTDFTLKINRVEAEDLGVYFCSQSTHAIYTFGGGTKLEIK
pEC50: 9.08
//
Binder: mAb008c (antibody, V domains shown, Human-mouse chimeric) VH: EVQLQQSGPELVKPGASVKMSCKASEYTFTDYNMHWVKQSHGKSLEWIGYINPNNGGTTYNQKFKGKATLTVNKSSSTAYMELRSLTSDDSAVYYCARRGYGSGYAMDYWGQGASVTVSS VL: DVLLTQTPLSLPVSLGDRASISCTSSQSIVHTNGNTYLEWYLQNPGQSPKLLIYKVSNRFSGVPDRFSGSGSGTDFTLKISRVEAEDLGVYYCFQGSLFPYTFGGGTKLEIK
pEC50: 8.82
